# tested-target: PSA (UniProt P07288 18-261)
# Sequence (P07288 25-261): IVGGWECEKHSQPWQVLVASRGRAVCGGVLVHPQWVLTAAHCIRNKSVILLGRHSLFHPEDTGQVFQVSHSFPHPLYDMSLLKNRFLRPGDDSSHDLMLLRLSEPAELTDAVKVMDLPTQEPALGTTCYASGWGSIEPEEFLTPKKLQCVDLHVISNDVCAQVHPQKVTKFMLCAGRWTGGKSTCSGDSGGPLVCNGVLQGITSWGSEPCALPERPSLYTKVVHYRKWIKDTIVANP
# assay: enzyme inhibition assay (panel of proteases); cyc-LHSPW tested against a panel of cancer-associated proteases (Fig. 5A); conditions not given
Positions of bridges follow the written chain, without caps; N, C: chain ends. No end group written: not given here.
assay-metric: Ki

So what's the measured Ki for this one? CLHSPWC (disulfide 1-7) [cyc-LHSPW]
> 100 µM
